Molecular target: FAM19A5 protein (Homo sapiens, UniProt Q7Z5A7)
Test: competitive inhibition ELISA; competitor: coated LRRC4B(453-576)-hFc
Could you please report measured Inhibition rate (%) for the items listed next?
Record the result as number plus unit.

The binder identified as GYTYNTTVTVETLETQPGEE [FB-20[N4]] registered its Inhibition rate (%) at 2.5%

response.value for GYTYFTTVTVETLETQPGEE [FB-20] (field: Inhibition rate (%)) = 63.2%

Quick note, Inhibition rate (%) for GNTYFTTVTVETLETQPGEE [FB-20[N1]] landed at 3.1%

// Inhibition rate (%) lookup, binder = GYTNFTTVTVETLETQPGEE [FB-20[N3]] , result: 4%
